This section presents compounds with their documented IC50 values.
# assaySystem: integrin α4β1 (RAMOS human cells adhering to VCAM-1) (Homo sapiens, UniProt P05556+P13612)
# Construct: Ramos cells, which express integrin α4β1; host or cells: RAMOS
# Sequence (P13612 34-1032): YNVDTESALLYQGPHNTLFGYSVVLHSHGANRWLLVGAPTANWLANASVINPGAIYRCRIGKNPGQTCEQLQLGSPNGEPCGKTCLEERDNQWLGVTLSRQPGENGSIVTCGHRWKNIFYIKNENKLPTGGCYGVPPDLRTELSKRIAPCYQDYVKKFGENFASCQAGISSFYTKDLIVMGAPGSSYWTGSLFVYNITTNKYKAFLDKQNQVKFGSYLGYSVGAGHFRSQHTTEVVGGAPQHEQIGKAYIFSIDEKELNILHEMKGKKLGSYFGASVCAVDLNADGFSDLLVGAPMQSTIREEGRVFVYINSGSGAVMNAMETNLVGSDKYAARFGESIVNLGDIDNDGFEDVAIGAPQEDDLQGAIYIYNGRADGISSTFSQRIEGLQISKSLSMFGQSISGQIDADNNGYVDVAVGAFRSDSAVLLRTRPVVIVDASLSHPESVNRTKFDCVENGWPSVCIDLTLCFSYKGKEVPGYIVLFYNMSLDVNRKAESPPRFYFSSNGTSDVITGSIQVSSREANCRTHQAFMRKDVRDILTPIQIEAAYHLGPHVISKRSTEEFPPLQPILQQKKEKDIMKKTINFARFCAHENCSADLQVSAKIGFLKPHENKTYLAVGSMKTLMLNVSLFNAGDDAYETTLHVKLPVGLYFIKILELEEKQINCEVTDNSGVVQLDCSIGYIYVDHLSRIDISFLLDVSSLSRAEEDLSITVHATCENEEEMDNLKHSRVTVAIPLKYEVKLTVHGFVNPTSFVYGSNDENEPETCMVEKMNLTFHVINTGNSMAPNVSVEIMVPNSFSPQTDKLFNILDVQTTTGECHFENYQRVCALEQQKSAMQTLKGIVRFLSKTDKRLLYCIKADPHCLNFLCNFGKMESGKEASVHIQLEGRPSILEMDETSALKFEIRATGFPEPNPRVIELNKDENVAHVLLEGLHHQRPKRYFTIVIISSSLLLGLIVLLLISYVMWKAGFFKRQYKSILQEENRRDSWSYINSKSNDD
# Sequence (P05556 21-798): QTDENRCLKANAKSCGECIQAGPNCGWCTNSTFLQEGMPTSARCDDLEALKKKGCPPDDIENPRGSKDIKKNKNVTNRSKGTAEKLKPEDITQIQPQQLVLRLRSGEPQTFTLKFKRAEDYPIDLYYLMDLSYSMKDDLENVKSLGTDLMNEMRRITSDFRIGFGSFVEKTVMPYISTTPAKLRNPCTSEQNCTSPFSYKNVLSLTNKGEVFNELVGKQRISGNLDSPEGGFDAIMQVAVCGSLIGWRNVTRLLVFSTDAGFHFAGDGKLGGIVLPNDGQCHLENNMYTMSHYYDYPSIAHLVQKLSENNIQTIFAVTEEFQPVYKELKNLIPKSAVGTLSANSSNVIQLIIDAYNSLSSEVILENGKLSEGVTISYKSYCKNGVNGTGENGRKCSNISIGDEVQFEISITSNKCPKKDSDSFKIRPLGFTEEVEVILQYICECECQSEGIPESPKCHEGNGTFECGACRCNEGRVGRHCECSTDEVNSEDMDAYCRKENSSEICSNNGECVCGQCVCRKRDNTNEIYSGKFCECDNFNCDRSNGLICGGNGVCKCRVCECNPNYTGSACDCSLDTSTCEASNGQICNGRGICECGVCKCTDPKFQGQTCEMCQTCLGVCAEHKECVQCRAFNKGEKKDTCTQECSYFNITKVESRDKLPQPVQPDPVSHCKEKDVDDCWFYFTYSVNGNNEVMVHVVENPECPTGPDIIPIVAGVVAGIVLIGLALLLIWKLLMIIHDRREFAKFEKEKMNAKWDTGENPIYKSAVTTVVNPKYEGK
# method: Integrin α4β1-VCAM cell adhesion assay (RAMOS cells)
# Format: cell-based
# runConditions: Ramos cells adhering to VCAM; read-out: Ramos Adhesion α4β1/VCAM IC50
Write the answer as a number in nM, unit excluded.

1. CC(C)C[C@@H]1NC(=O)c2ccc(-c3ccc(N4CCN(C(=O)CC[C@H](N)C(=O)N5CCN(c6ccc(-c7ccc8cc7CNC(=O)[C@@H]7CCCN7[C@H](C(=O)NC(C)(C)C)[C@H](C)NC(=O)[C@H]([C@@H](C)O)NC(=O)[C@H](CC(=O)O)NC(=O)[C@H](CC(C)C)NC8=O)cc6)CC5)CC4)cc3)c(c2)CNC(=O)[C@@H]2CCCN2[C@H](C(=O)NC(C)(C)C)[C@H](C)NC(=O)[C@H]([C@@H](C)O)NC(=O)[C@H](CC(=O)O)NC1=O [Compound 494] | 161
2. CC(C)C[C@@H]1NC(=O)c2ccc(-c3ccc(N4CCN(C(=O)c5cc(-c6ccccc6)c(C(=O)N6CCN(c7ccc(-c8ccc9cc8CNC(=O)[C@@H]8CCCN8[C@H](C(=O)NC(C)(C)C)[C@H](C)NC(=O)[C@H]([C@@H](C)O)NC(=O)[C@H](CC(=O)O)NC(=O)[C@H](CC(C)C)NC9=O)cc7)CC6)cc5-c5ccccc5)CC4)cc3)c(c2)CNC(=O)[C@@H]2CCCN2[C@H](C(=O)NC(C)(C)C)[C@H](C)NC(=O)[C@H]([C@@H](C)O)NC(=O)[C@H](CC(=O)O)NC1=O [Compound 469] | 44

From here, focus on the item given below.
input: Using the record for CC(C)C[C@@H]1NC(=O)c2ccc(-c3ccc(N4CCN(C(=O)[C@H]5CCC[C@H]5C(=O)N5CCN(c6ccc(-c7ccc8cc7CNC(=O)[C@@H]7CCCN7[C@H](C(=O)NC(C)(C)C)[C@H](C)NC(=O)[C@H]([C@@H](C)O)NC(=O)[C@H](CC(=O)O)NC(=O)[C@H](CC(C)C)NC8=O)cc6)CC5)CC4)cc3)c(c2)CNC(=O)[C@@H]2CCCN2[C@H](C(=O)NC(C)(C)C)[C@H](C)NC(=O)[C@H]([C@@H](C)O)NC(=O)[C@H](CC(=O)O)NC1=O [Compound 458] , state its measured IC50.
output: 990

---

# assaySystem: integrin α4β7 on α4β7+ memory T helper cells (Homo sapiens, UniProt P13612+P26010)
# Construct: endogenous in cells
# Sequence (P26010 20-798, one chain of several): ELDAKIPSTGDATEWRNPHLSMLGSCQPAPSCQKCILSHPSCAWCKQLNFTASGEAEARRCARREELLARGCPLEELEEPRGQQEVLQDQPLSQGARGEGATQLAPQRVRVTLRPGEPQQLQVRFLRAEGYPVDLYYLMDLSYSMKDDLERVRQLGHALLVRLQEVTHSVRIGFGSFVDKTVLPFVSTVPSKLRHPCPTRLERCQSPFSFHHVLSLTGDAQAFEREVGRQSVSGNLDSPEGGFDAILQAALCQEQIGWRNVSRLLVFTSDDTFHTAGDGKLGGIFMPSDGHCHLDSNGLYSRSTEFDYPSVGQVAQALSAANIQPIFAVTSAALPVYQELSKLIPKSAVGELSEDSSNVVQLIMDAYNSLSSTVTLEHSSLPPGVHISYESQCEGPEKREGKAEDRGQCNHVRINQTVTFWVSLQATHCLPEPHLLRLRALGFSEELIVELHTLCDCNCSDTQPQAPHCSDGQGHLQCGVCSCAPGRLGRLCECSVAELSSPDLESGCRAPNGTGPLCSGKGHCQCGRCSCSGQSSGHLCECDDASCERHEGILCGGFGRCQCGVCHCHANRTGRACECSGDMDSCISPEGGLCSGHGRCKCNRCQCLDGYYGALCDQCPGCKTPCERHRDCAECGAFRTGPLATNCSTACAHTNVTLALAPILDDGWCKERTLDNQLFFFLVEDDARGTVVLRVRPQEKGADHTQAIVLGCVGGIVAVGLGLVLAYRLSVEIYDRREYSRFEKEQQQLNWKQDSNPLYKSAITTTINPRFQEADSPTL
# method: MAdCAM-1 competition / receptor occupancy assay in human whole blood, α4β7-positive Th memory cells
# Assay type: cell-based
# runConditions: human whole blood, inhibition of MAdCAM-1 binding to α4β7-positive Th memory cells, FACS; read-out: MADCAM FACS α4β7 Th mem
assayEndpoint: IC50 (nM)
State just the number; it will be interpreted in nM.

1) CC(C)C[C@@H]1NC(=O)c2ccc(-c3ccc(N4CCN(C(=O)c5ccccc5C(=O)N5CCN(c6ccc(-c7ccc8cc7CNC(=O)[C@@H]7CCCN7[C@H](C(=O)NC(C)(C)C)[C@H](C)NC(=O)[C@H]([C@@H](C)O)NC(=O)[C@H](CC(=O)O)NC(=O)[C@H](CC(C)C)NC8=O)cc6)CC5)CC4)cc3)c(c2)CNC(=O)[C@@H]2CCCN2[C@H](C(=O)NC(C)(C)C)[C@H](C)NC(=O)[C@H]([C@@H](C)O)NC(=O)[C@H](CC(=O)O)NC1=O | 64

--- query ---
input: Let me know recorded IC50 for CC(C)C[C@@H]1NC(=O)c2ccc(-c3ccc(N4CCN(C(=O)c5ccc6cc(C(=O)N7CCN(c8ccc(-c9ccc%10cc9CNC(=O)[C@@H]9CCCN9[C@H](C(=O)NC(C)(C)C)[C@H](C)NC(=O)[C@H]([C@@H](C)O)NC(=O)[C@H](CC(=O)O)NC(=O)[C@H](CC(C)C)NC%10=O)cc8)CC7)ccc6c5)CC4)cc3)c(c2)CNC(=O)[C@@H]2CCCN2[C@H](C(=O)NC(C)(C)C)[C@H](C)NC(=O)[C@H]([C@@H](C)O)NC(=O)[C@H](CC(=O)O)NC1=O , thanks.
output: 46

---

# assaySystem: integrin α4β7 on α4β7+ memory T helper cells (Homo sapiens, UniProt P13612+P26010)
# Construct: endogenous in cells
# method: MAdCAM-1 competition / receptor occupancy assay in human whole blood, α4β7-positive Th memory cells
# Type: cell-based
# runConditions: human whole blood, inhibition of MAdCAM-1 binding to α4β7-positive Th memory cells, FACS; read-out: MADCAM FACS α4β7 Th mem
Reported pIC50 values for a set of molecules
pIC50 here: minus log base 10 of the concentration, concentration in moles per litre.

Solved cases below.
1. CC(C)C[C@@H]1NC(=O)c2ccc(-c3ccc(N4CCN(C(=O)C5(C(=O)N6CCN(c7ccc(-c8ccc9cc8CNC(=O)[C@@H]8CCCN8[C@H](C(=O)NC(C)(C)C)[C@H](C)NC(=O)[C@H]([C@@H](C)O)NC(=O)[C@H](CC(=O)O)NC(=O)[C@H](CC(C)C)NC9=O)cc7)CC6)Cc6ccccc6C5)CC4)cc3)c(c2)CNC(=O)[C@@H]2CCCN2[C@H](C(=O)NC(C)(C)C)[C@H](C)NC(=O)[C@H]([C@@H](C)O)NC(=O)[C@H](CC(=O)O)NC1=O | 7.03
2. CC(C)C[C@@H]1NC(=O)c2ccc(-c3ccc(N4CCN(C(=O)c5ccccc5-c5ccccc5C(=O)N5CCN(c6ccc(-c7ccc8cc7CNC(=O)[C@@H]7CCCN7[C@H](C(=O)NC(C)(C)C)[C@H](C)NC(=O)[C@H]([C@@H](C)O)NC(=O)[C@H](CC(=O)O)NC(=O)[C@H](CC(C)C)NC8=O)cc6)CC5)CC4)cc3)c(c2)CNC(=O)[C@@H]2CCCN2[C@H](C(=O)NC(C)(C)C)[C@H](C)NC(=O)[C@H]([C@@H](C)O)NC(=O)[C@H](CC(=O)O)NC1=O | 7.37
3. CC(C)C[C@@H]1NC(=O)c2ccc(-c3ccc(N4CCN(Cc5cccc(CN6CCN(c7ccc(-c8ccc9cc8CNC(=O)[C@@H]8CCCN8[C@H](C(=O)NC(C)(C)C)[C@H](C)NC(=O)[C@H]([C@@H](C)O)NC(=O)[C@H](CC(=O)O)NC(=O)[C@H](CC(C)C)NC9=O)cc7)CC6)c5)CC4)cc3)c(c2)CNC(=O)[C@@H]2CCCN2[C@H](C(=O)NC(C)(C)C)[C@H](C)NC(=O)[C@H]([C@@H](C)O)NC(=O)[C@H](CC(=O)O)NC1=O | 7.39
4. CC(C)C[C@@H]1NC(=O)c2ccc(-c3ccc(N4CCN(C(=O)[C@H]5CCC[C@H]5C(=O)N5CCN(c6ccc(-c7ccc8cc7CNC(=O)[C@@H]7CCCN7[C@H](C(=O)NC(C)(C)C)[C@H](C)NC(=O)[C@H]([C@@H](C)O)NC(=O)[C@H](CC(=O)O)NC(=O)[C@H](CC(C)C)NC8=O)cc6)CC5)CC4)cc3)c(c2)CNC(=O)[C@@H]2CCCN2[C@H](C(=O)NC(C)(C)C)[C@H](C)NC(=O)[C@H]([C@@H](C)O)NC(=O)[C@H](CC(=O)O)NC1=O | 7.18

For the next question, use this molecule.
input: // fetch pIC50 for CC(C)C[C@@H]1NC(=O)c2ccc(-c3ccc(N4CCN(C(=O)c5ccnc(-c6cc(C(=O)N7CCN(c8ccc(-c9ccc%10cc9CNC(=O)[C@@H]9CCCN9[C@H](C(=O)NC(C)(C)C)[C@H](C)NC(=O)[C@H]([C@@H](C)O)NC(=O)[C@H](CC(=O)O)NC(=O)[C@H](CC(C)C)NC%10=O)cc8)CC7)ccn6)c5)CC4)cc3)c(c2)CNC(=O)[C@@H]2CCCN2[C@H](C(=O)NC(C)(C)C)[C@H](C)NC(=O)[C@H]([C@@H](C)O)NC(=O)[C@H](CC(=O)O)NC1=O ; system: integrin α4β7 on α4β7+ memory T helper cells (Homo sapiens, UniProt P13612+P26010)
output: 6.88

---

IC50 for assorted compounds
# assaySystem: integrin α4β7 (RPMI8866 human cells adhering to MAdCAM-1) (Homo sapiens, UniProt P13612+P26010)
# Construct: RMP18866 cells, which express integrin α4β7; host or cells: RPMI8866
# Sequence (P26010 20-798, one chain of several): as the sequence (P26010 20-798, one chain of several) above
# method: Integrin α4β7-MAdCAM cell adhesion assay (RPMI8866 cells)
# Type: cell-based
# runConditions: RPMI8866 cells adhering to MAdCAM; read-out: RPMI8866 Adhesion α4β7/MAdCAM IC50
# Method: Integrin α4β7-MAdCAM Cell Adhesion Assay RPMI8866 cells were resuspended at 10 million cells/ml in PBS containing […] and incubated at 37° C. for 30 min in a 50 ml tube. […] The plate was emptied by inverting and blotting on paper towels and washed manually twice with PBS. 100 μl PBS was then added to each well. […] To calculate the dose response, the fluorescence value of control wells not containing cells was subtracted from each test well.
Field format: number, assumed nM, no unit text.

1. CC(C)C[C@@H]1NC(=O)c2ccc(-c3ccc(N4CCN(C(=O)c5ccc(C(=O)N6CCN(c7ccc(-c8ccc9cc8CNC(=O)[C@@H]8CCCN8[C@H](C(=O)NC(C)(C)C)[C@H](C)NC(=O)[C@H]([C@@H](C)O)NC(=O)[C@H](CC(=O)O)NC(=O)[C@H](CC(C)C)NC9=O)cc7)CC6)c6ccccc56)CC4)cc3)c(c2)CNC(=O)[C@@H]2CCCN2[C@H](C(=O)NC(C)(C)C)[C@H](C)NC(=O)[C@H]([C@@H](C)O)NC(=O)[C@H](CC(=O)O)NC1=O [Compound 463] | 21

Could you now look at the following compound, please?
input: Using known records, supply IC50 for CC(C)C[C@@H]1NC(=O)c2ccc(-c3ccc(N4CCN(C(=O)c5cc(C(=O)N6CCN(c7ccc(-c8ccc9cc8CNC(=O)[C@@H]8CCCN8[C@H](C(=O)NC(C)(C)C)[C@H](C)NC(=O)[C@H]([C@@H](C)O)NC(=O)[C@H](CC(=O)O)NC(=O)[C@H](CC(C)C)NC9=O)cc7)CC6)cc(C(F)(F)F)c5)CC4)cc3)c(c2)CNC(=O)[C@@H]2CCCN2[C@H](C(=O)NC(C)(C)C)[C@H](C)NC(=O)[C@H]([C@@H](C)O)NC(=O)[C@H](CC(=O)O)NC1=O [Compound 477]
output: 21
